- condition: human, serum;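 also: acute human liver injury from clinical signs plus serum ALT or AST above 6 N or alkaline phosphatase above 1.7 N, covering cytolytic, cholestatic and mixed forms, value counts references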
assay-metric: Hepatotoxicity (acute)

O=C(O)c1ccccc1Nc1cccc(C(F)(F)F)c1 ... 0
CN(C)CCc1c[nH]c2ccc(C[C@H]3COC(=O)N3)cc12 ... 0
CO/N=C(\C(=O)N[C@@H]1C(=O)N2C(C(=O)O)=C(COC(C)=O)CS[C@H]12)c1csc(N)n1 ... 4
O=C(OCC(O)CO)c1ccccc1Nc1ccnc2cc(Cl)ccc12 (configuration not stated) ... 14
CN(C)CCCN1c2ccccc2Sc2ccc(Cl)cc21 ... 58
C[C@]12CCC(=O)C=C1CC[C@@H]1[C@@H]2[C@@H](O)C[C@@]2(C)[C@H]1CC[C@]2(O)C(=O)CO [HYDROCORTISONE] ... 0
Nc1ncnc2c1ncn2[C@@H]1O[C@H](CO)[C@@H](O)[C@@H]1O ... 0
CN1[C@@H]2CC[C@H]1C[C@@H](OC(=O)c1c[nH]c3ccccc13)C2 ... 1
CCCCC1C(=O)NN(c2ccccc2)C1=O (configuration not stated) ... 1
NCC1(CC(=O)O)CCCCC1 ... 5
COc1cc(/C=C/C(=O)O)ccc1O [FERULATE] ... 2
CC[C@H]1OC(=O)[C@H](C)[C@@H](O[C@H]2C[C@@](C)(OC)[C@@H](O)[C@H](C)O2)[C@H](C)[C@@H](O[C@@H]2O[C@H](C)C[C@H](N(C)C)[C@H]2O)[C@](C)(O)C[C@@H](C)C(=O)[C@H](C)[C@@H](O)[C@]1(C)O ... 72
NC(CO)(CO)CO ... 2
CCOC(=O)c1c(N)sc2c1CCN(Cc1ccccc1)C2 ... 1
C[C@]12CC[C@@H]3c4ccc(OC(=O)N(CCCl)CCCl)cc4CC[C@H]3[C@@H]1CC[C@@H]2O ... 2
O=C1c2ccccc2C(=O)C1c1ccccc1 ... 13
O=C(O)CCCc1ccc(N(CCCl)CCCl)cc1 ... 7

Data origin, for the record: ChEMBL document CHEMBL3137667
